# test details: Toxicity in ip dosed ICR mouse administered as single dose
# Format: organism-based
# condition details: in vivo
readout label: LD50 (mg/kg)
One number for each entry, in mg/kg.

Q: Consider the compound COc1cc(CNC(=O)CCCC/C=C/C(C)C)ccc1O and give its measured LD50.
A: 7.5

---

# system: Transient receptor potential cation channel subfamily V member 1 (Rattus norvegicus)
# Sequence (O35433 whole entry): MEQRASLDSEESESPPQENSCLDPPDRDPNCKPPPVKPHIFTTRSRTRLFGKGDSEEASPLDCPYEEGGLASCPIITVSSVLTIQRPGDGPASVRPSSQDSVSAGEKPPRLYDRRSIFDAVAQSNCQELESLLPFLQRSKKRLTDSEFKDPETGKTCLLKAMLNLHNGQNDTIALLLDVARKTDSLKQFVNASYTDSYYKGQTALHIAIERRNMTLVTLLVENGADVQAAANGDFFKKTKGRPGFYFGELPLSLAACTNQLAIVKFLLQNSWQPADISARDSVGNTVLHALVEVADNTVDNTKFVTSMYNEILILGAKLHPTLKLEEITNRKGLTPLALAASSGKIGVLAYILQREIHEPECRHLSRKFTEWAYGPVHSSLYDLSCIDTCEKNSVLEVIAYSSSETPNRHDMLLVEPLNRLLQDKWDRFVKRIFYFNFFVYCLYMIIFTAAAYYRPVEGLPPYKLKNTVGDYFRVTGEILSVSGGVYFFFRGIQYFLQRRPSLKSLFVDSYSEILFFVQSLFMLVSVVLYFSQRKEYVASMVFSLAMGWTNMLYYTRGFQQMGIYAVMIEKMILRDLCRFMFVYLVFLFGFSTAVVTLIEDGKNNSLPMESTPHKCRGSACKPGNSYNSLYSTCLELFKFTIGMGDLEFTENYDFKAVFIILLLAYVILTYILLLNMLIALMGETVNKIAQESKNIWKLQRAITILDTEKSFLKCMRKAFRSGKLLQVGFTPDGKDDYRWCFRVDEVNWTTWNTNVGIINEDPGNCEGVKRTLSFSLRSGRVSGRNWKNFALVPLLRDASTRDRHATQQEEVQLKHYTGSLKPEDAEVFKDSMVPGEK
# test details: Agonist activity at rat TRPV1 expressed in CHO cells assessed as increase in 45Ca2+ uptake incubated for 5 mins by liquid scintillation counting method
readout label: EC50

Q: Consider the molecule CC(C)(C)c1nc(-c2cccc(Cl)c2)c(CNC(=O)Nc2ccc(CO)c(F)c2)s1 and give its measured EC50.
A: 93 nM

---

# system: Transient receptor potential cation channel subfamily V member 1 (Rattus norvegicus)
readout label: Ki (nM)
Answers are plain numbers, in nM.

Q: Consider the compound CC(C)(C)c1nc(-c2cccc(Cl)c2)c(CNC(=O)Nc2ccc(CO)c(F)c2)s1 and give its measured Ki.
A: 23.8

---

# system: Transient receptor potential cation channel subfamily V member 1 (Homo sapiens, UniProt Q8NER1)
# Sequence (Q8NER1 whole entry): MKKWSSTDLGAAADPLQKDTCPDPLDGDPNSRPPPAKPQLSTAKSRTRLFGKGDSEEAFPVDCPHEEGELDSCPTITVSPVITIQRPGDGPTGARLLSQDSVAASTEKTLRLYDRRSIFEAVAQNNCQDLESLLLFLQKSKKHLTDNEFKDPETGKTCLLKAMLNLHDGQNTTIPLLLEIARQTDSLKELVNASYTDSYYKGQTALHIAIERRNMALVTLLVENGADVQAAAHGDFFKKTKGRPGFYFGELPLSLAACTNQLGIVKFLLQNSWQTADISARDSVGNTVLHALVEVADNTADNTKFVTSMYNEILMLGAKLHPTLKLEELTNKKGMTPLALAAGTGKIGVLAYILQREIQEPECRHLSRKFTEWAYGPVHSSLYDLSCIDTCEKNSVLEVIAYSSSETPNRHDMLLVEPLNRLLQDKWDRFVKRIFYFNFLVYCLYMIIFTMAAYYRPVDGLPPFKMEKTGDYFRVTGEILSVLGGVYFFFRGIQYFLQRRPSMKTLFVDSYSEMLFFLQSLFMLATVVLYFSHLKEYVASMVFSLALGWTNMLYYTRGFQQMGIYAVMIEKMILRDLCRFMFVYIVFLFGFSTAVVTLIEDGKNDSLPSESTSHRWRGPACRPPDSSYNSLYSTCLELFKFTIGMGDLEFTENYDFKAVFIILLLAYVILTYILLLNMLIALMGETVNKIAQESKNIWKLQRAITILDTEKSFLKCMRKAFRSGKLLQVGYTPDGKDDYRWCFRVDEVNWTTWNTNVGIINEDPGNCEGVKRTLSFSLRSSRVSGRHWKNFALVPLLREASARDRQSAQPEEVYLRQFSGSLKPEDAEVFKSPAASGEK
# test details: Agonist activity at human TRPV1 expressed in CHO cells assessed as increase in 45Ca2+ uptake incubated for 5 mins by liquid scintillation counting method
readout label: pEC50
One number for each entry, as −log10 of the molar value.

Q: Consider the compound CC(C)(C)c1nc(-c2cccc(Cl)c2)c(CNC(=O)Nc2ccc(CO)c(F)c2)s1 and give its measured pEC50.
A: 8.30
